Provenance of the data: the supplement of paper PMC11208160

# Measurement protocol: recombinant barcode read abundance after kanamycin selection (control-corrected) (log10(CPM+1)); higher = more efficient recombination; sequences stand for … in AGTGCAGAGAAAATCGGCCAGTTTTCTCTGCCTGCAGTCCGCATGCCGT…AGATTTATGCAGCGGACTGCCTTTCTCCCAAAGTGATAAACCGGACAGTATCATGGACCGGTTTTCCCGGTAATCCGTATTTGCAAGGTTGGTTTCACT; site = the 11-nt target;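 further: IS621 recombinase and bridge RNA in Escherichia coli cells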
Attribute measured: recombinant barcode read abundance (log10)
One number for each entry.

# example entries with known answers
{"columns": ["Ordered residues", "Measurement"],
 "data": [
  ["CGAGCAGCTTGGGTTCTAACCTGTTGCCT (site CGAGCAGCTAG)", 0.395],
  ["GGCTATGCTTGGGTTCTAACCTGTTGCCT (site GACTATGCTAG)", 0.143]
]}

Give recombinant barcode read abundance (log10) for each listed item.
1. TAGCAGACTTGGGTTCTAACCTGTTGCCT (site TAGCGGACTAG)
2. AATGGATCTTGGGTTCTAACCTGTTGCCT (site AATGCATCTAG)
3. CTACCAGCTTGGGTTCTAACCTGTTGCCT (site CTACCAGCTAG)

Completion:
1: 0.0243; 2: 0.0416; 3: 1.17

Give recombinant barcode read abundance (log10) for each of the items listed below.
1. AGAAAGGCTTGGGTTCTAACCTGTTGCGC (site AGAAAGGCTGC)
2. CTATTCCCTTGGGTTCTAACCTGTTGCTG (site CTATTCCCTCA)
3. GCCTGAGCTTGGGTTCTAACCTGTTGCCT (site GCGTGAGCTAG)
4. CTCCGTACTTGGGTTCTAACCTGTTGCCT (site CTCCGTACTAG)
5. TCCAACCCTTGGGTTCTAACCTGTTGCCA (site GCCAACCCTTA)
6. GTGTCTCCTTGGGTTCTAACCTGTTGCCG (site GTCTCTCCTCG)
7. AGTTCACCTTGGGTTCTAACCTGTTGCTA (site GAGGGCTCTCC)
8. GCGCATCCTTGGGTTCTAACCTGTTGCCT (site GCGTATCCTAG)

Completion:
[2.32, 1.99, 0.272, 0.858, 0.0929, 0.0207, 0.314, 0.0569]

Please give recombinant barcode read abundance (log10), item by item, for the list that follows.
1. TATCCGACTTGGGTTCTAACCTGTTGCCC (site TATCCGACTAG)
2. AAGAGAGCTTGGGTTCTAACCTGTTGCCT (site AAGACAGCTAG)
3. AGTAAGACTTGGGTTCTAACCTGTTGCCT (site AGTAAGACTAA)
4. TCACGGTCTTGGGTTCTAACCTGTTGCCT (site TCTCGGTCTAG)
5. AAAATACCTTGGGTTCTAACCTGTTGCGG (site AAAATACCTCC)

Completion:
[0.238, 0.154, 0.132, 0.0701, 1.68]

For each of the sequences below, state recombinant barcode read abundance (log10).
1. TGAGTCCCTTGGGTTCTAACCTGTTGCAG (site AAGTGGTCTTA)
2. CATAGACCTTGGGTTCTAACCTGTTGCAT (site CATAGTCCTAT)
3. AGTGCGGCTTGGGTTCTAACCTGTTGCCT (site CGTGCGGCTAG)

Completion:
0.149
0.0411
0.231
